The reported measurements were obtained from patent US20060069132A1.

Below, each entry is listed alongside its reported Plant response rating, Barnyardgrass.
Test system: barnyardgrass
Assay: Test B pre-/postemergence herbicide test
Type: in vivo, Echinochloa crus-galli
Conditions: Postemergence, 500 g ai/ha; visual rating after 13 to 15 days, scale 0 (no effect) to 100 (complete control)
Method: […] At the same time, plants selected from these crop and weed species and also blackgrass (Alopecurus myosuroides Huds.), wheat (Triticum aestivum L.) and wild oat (Avena fatua L.) were treated with postemergence applications of test chemicals formulated in the same manner. […] Treated plants and controls were maintained in a greenhouse for 13 to 15 days, after which time all species were compared to controls and visually evaluated. […]
Enter the number alone.

C=Cn1nc(C(C)(C)C)cc1C(=O)Nc1cccc(C(=O)NCC(F)(F)F)c1 [Compound 37] | 20

Incoming: Recall and state the measured Plant response rating, Barnyardgrass for CCn1nc(C(C)(C)C)cc1C(=O)Nc1cccc2c1CCN(C1CC1)C2=O [Compound 64] .
Outgoing: 10

Incoming: Determine its reported Plant response rating, Barnyardgrass: C#CCn1nc(C(C)(C)C)cc1C(=O)Nc1cccc(C(=O)NCC)c1 [Compound 50]
Outgoing: 70

Incoming: Look up Plant response rating, Barnyardgrass of C#CCNC(=O)c1cccc(NC(=O)c2cc(C(C)(C)C)nn2CC)c1 [Compound 47] and report it.
Outgoing: 40

Incoming: Specify reported Plant response rating, Barnyardgrass for the compound shown: C=Cn1nc(C(C)(C)C)cc1C(=O)Nc1cccc(C(C)=NO)c1 [Compound 114]
Outgoing: 30

Incoming: Could you please provide reported Plant response rating, Barnyardgrass for CC(=NO)c1cc(NC(=O)c2cc(C(C)(C)C)nn2C)ccc1F [Compound 109] ? Thanks!
Outgoing: 20

Incoming: Fill in reported Plant response rating, Barnyardgrass for this entry: CCOC(=O)c1cc(NC(=O)c2cc(C(C)(C)C)nn2CC)ccc1C [Compound 99]
Outgoing: 0

Incoming: Look up and report measured Plant response rating, Barnyardgrass for this entry: C=Cn1nc(C(C)(C)C)cc1C(=O)Nc1cccc(C(=O)NCC)c1 [Compound 33]
Outgoing: 30

----------
Tested on: blackgrass
Assay: Test B postemergence herbicide test
Format: in vivo, Alopecurus myosuroides
Conditions: postemergence, 500 g ai/ha; visual rating, scale 0 (no effect) to 100 (complete control)
# Lookup of reported Blackgrass plant response rating keyed by entry
Quick one: just the number, no unit, thanks!

Examples with their reported Blackgrass plant response rating follow.
CCNC(=O)c1cccc(NC(=O)c2cn(C(C)(C)C)nc2C)c1 | 10
CCn1nc(C(C)(C)C)cc1C(=O)Nc1cccc(C(=O)N2CCCC2)n1 | 0
CCn1nc(C(C)(C)C)cc1C(=O)Nc1cc(C(=O)OC)cc(C)n1 | 0

Proceed to the following item.
Incoming: Consider the compound COC(=O)c1cccc(NC(=O)c2sc(C(C)(C)C)nc2C)c1 . State its measured Blackgrass plant response rating.
Outgoing: 0

----------
System: pigweed
Experiment: Test B pre-/postemergence herbicide test
Type: in vivo, Amaranthus retroflexus
Settings: postemergence, 500 g ai/ha; visual rating, scale 0 (no effect) to 100 (complete control)
MEASURED_PROPERTY: Pigweed plant response rating

CCN(CC)C(=O)c1cccc(NC(=O)c2nn(C(C)(C)C)cc2Br)c1 | 10
CCNC(=O)c1cccc(NC(=O)c2sc(C(C)(C)C)nc2C)c1 | 50

Incoming: Output reported Pigweed plant response rating of the molecule CCNC(=O)c1cccc(NC(=O)c2sc(C(C)(C)C)nc2CC)n1 on pigweed.
Outgoing: 20

Incoming: Look up and report measured Pigweed plant response rating (pigweed) for the following molecule: CCNC(=O)c1cccc(NC(=O)c2cn(C(C)(C)C)nc2C)c1
Outgoing: 80

Incoming: Look up pigweed data: Pigweed plant response rating of CCn1nc(C(C)(C)C)cc1C(=O)Nc1cccc(SC)c1 , then report it.
Outgoing: 60
